- Tested on: brain homovanillic acid (HVA)
- Experiment Description: Effect of Drug Compounds on Brain Level of Homovanillic Acid (HVA)
- Format: in vivo, male Long Evans rats
- Experimental Parameters: brain HVA as ratio to control group (control 1.0); 0.15 mmoles/kg intraperitoneally; brains minus cerebella two or three hours later; ratios greater than 1.6 of practical significance
Measurement Label: HVA Ratio
One number for each entry.

Answered examples (2):
                                   compound  meas_value
0  C#CCN1CCN(C2=Nc3cc(Cl)ccc3Nc3ccccc32)CC1 [VIII]         0.9
1  Clc1ccc2c(c1)N=C(N1CCN(CC3CC3)CC1)c1ccccc1N2 [VI]         3.4

I'm hoping you can list HVA Ratio for every compound here, please.
1. Clc1ccc2c(c1)N=C(N1CCN(C3CC3)CC1)c1ccccc1N2 [VII]
2. Clc1ccc2c(c1)N=C(N1CCCN(CC3CC3)CC1)c1ccccc1N2 [XII]
3. O=CN1CCCN(C2=Nc3cc(Cl)ccc3Nc3ccccc32)CC1 [XI]
4. CN1CCCN(C2=Nc3cc(Cl)ccc3Nc3ccccc32)CC1 [X]
5. Clc1ccc2c(c1)N=C(N1CCCN(C3CC3)CC1)c1ccccc1N2 [IX]

Response:
1.1
0.9
1.0
1.0
0.9
